The origin of these recorded values is paper PMC4866600.

- System Name: NorM-NG (Neisseria gonorrhoeae)
- Sequence (Q5F9J8 entry or part of it): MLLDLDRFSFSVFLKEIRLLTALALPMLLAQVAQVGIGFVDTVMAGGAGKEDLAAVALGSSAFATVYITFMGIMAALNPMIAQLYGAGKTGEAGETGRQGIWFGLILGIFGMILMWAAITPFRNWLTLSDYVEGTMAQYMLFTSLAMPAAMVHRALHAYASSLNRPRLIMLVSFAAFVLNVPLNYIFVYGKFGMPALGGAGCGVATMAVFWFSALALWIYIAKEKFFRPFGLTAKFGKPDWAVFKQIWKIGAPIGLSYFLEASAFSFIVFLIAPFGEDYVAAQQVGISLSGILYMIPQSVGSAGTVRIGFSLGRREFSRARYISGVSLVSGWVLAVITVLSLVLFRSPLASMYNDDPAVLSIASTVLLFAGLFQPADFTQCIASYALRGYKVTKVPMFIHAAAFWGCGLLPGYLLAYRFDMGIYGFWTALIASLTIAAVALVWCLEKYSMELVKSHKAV
- Experiment Description: biochemical
- Type: binding
Measured Parameter: Kd

*Q* If you can, please state the reported Kd value of CC/N=c1\cc2oc3cc(NCC)c(C)cc3c(-c3ccccc3C(=O)OCC)c-2cc1C [R6G, rhodamine 6G] .
*A* ~5 µM

* * *

- System Name: DinF-BH (Halalkalibacterium halodurans (Bacillus halodurans), UniProt Q9KAX3)
- Sequence (Q9KAX3 1-464): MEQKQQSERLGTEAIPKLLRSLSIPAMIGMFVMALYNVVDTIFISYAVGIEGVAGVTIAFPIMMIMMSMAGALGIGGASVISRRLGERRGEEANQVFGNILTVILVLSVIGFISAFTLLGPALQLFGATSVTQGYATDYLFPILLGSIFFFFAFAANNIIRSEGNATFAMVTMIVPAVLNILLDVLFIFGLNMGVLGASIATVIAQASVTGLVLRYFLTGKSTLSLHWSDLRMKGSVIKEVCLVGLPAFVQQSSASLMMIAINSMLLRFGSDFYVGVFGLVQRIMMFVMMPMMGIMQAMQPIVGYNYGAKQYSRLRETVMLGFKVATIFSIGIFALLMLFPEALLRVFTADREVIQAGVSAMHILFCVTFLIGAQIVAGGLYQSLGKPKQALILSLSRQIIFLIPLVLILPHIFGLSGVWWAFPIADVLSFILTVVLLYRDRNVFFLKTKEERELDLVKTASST
- Experiment Description: biochemical
Measured Parameter: Kd

*Q* If you can, please state the reported Kd value of CC/N=c1\cc2oc3cc(NCC)c(C)cc3c(-c3ccccc3C(=O)OCC)c-2cc1C [R6G, rhodamine 6G] .
*A* ~5 µM

* * *

- System Name: DinF-BH (Halalkalibacterium halodurans (Bacillus halodurans), UniProt Q9KAX3)
- Sequence (Q9KAX3 1-464): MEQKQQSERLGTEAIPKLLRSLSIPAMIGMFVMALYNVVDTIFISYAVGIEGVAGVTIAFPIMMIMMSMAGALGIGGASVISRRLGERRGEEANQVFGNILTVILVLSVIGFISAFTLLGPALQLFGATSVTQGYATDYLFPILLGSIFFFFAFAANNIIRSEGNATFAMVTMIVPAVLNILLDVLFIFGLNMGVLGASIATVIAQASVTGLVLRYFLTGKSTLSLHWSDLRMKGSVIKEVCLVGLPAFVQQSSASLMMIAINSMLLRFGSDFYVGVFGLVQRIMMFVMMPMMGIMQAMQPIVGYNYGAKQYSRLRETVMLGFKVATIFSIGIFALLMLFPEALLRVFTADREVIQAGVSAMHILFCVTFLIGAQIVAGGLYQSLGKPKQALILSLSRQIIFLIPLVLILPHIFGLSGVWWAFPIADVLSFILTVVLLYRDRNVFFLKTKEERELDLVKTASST
- Experiment Description: biochemical
- Description: [^3H]-R6G (2.7 Ci mmol^−1, 1.0 mCi ml^−1) was custom-synthesized by Moravek Biochemicals (Brea, California, USA). [^3H]-R6G binding assay was performed by using immobilized protein on Ni-NTA beads[31][42] as follows. […] The beads were thoroughly washed, resuspended and aliquoted in the binding buffer. […] The radioactivity of the eluate was measured by liquid scintillation. […]
pKi: −log10 of the molar value.
Hi there, I'd appreciate the recorded pKi for every entry that follows.

*Q* If you can, please state the reported pKi value of CC/N=c1\cc2oc3cc(NCC)c(C)cc3c(-c3ccccc3C(=O)OCC)c-2cc1C .
*A* > 5.00

*Q* If you can, please state the reported pKi value of CC[n+]1c(-c2ccccc2)c2cc(N)ccc2c2ccc(N)cc21 .
*A* > 4.60
